biological target: T1, human recombinant soluble ACE2 (human, UniProt Q9BYF1 18-740); assay: ELISA screen
T1 construct: also called hrsACE2
T1 sequence (Q9BYF1 18-740 limits assumed): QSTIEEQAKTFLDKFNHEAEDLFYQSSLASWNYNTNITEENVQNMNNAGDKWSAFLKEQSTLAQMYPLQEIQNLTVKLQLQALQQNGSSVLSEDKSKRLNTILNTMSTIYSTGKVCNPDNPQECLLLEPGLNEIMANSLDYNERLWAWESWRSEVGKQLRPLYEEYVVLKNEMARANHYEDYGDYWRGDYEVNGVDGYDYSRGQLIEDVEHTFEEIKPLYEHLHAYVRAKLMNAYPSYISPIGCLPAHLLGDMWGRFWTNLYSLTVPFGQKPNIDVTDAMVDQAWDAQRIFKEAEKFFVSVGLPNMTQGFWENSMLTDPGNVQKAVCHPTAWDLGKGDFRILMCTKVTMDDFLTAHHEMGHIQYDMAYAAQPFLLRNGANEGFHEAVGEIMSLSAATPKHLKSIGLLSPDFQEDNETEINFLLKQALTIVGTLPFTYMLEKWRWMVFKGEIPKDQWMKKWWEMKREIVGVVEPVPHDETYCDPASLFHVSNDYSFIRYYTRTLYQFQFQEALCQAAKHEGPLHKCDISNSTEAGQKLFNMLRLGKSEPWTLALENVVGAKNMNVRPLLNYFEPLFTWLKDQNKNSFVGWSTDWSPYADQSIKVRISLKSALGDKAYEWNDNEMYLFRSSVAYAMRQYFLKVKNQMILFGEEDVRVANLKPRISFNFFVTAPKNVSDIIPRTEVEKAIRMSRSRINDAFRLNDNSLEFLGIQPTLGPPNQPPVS
measurement.label: Mean normalized OD

binder="Mrc2_3 CRD-mouse IgG2a-Fc fusion protein (Fc fusion) HSPSCYWLGEDQVIYSDARRLCTDHGSQLVTITNRFEQAFVSSLIYNWEGEYFWTALQDLNSTGSFRWLSGDEVIYTHWNRDQPGYRRGGCVALATGSAMGLWEVKNCTSFRARYICGGGSGGGSGGGS" recorded_value="0.01 OD"
binder="Pla2r1_7 CRD-mouse IgG2a-Fc fusion protein (Fc fusion) YGNRTYKIIRGNMTWYAAGKSCRMHRAELASIPDAFHQAFLTVLLSRLGHTHWIGLSTTDNGQTFDWSDGTKSPFTYWKDEESAFLGDCAFADTNGRWHSTACESFLQGAICGGGSGGGSGGGS" recorded_value="0 OD"
binder="Clec9a CRD-mouse IgG2a-Fc fusion protein (Fc fusion) NGKSCYYVFERWEMWNISKKSCLKEGASLFQIDSKEEMEFISSIGKLKGGNKYWVGVFQDGISGSWFWEDGSSPLSDLLPAERQRSAGQICGYLKDSTLISDKCDSWKYFICEGGGSGGGSGGGS" recorded_value="0.222 OD"
binder="Lgalslb CRD-mouse IgG2a-Fc fusion protein (Fc fusion) YFRGHIKGGMRPGKKVLVMGIVDHNPKSFAISLTCGDSEDPPADVAIELKVVFTNQQVFRNSCISGESDEENLAFPYFPFVPDQPFRMEIFCQQPCFRVLVDGHHLFDFYHRIQTLSAIDSIKISGDLQIGGGSGGGSGGGS" recorded_value="0.047 OD"
